target: Histone deacetylase 3 (Homo sapiens, UniProt O15379)
Sequence (O15379 whole entry): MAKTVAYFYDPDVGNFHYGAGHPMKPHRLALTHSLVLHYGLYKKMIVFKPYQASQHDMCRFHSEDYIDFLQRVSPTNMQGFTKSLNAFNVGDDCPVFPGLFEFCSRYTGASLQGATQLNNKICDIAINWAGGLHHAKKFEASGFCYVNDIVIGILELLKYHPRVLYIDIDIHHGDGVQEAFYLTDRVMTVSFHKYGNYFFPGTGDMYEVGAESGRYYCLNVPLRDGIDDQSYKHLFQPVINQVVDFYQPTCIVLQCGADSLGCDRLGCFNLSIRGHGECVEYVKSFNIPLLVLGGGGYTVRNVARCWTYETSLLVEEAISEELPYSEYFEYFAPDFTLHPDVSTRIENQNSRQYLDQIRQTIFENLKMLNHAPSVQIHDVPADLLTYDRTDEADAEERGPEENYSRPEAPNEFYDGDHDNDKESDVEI
Label T when IC50 is strictly below 200 nM; otherwise label F.

Record excerpt, results attached:
{"compound": "COc1cc2cc(c1)COc1ccccc1NC(=O)C(CCCCCC(=O)NO)OCCC2 (racemic)", "label": "F"}
{"compound": "COc1cc2cc(c1)COc1ccccc1NC(=O)[C@H](CCCCCC(=O)NO)OCCC2", "label": "T"}

Strictly below 200 nM in IC50? COc1cc2cc(c1)COc1ccccc1NC(=O)[C@H](CCCCCC(=O)NO)OC/C=C\2 T

Criterion: IC50 strictly below 200 nM. Is it met by O=C(CCCCCC1OCCCCCCOc2ccccc2NC1=O)NO (racemic) ? T

====

We begin with a simple list: items and their reported pIC50.
molecular target: UniProt:Q9UKV0
Sequence (Q9UKV0 whole entry): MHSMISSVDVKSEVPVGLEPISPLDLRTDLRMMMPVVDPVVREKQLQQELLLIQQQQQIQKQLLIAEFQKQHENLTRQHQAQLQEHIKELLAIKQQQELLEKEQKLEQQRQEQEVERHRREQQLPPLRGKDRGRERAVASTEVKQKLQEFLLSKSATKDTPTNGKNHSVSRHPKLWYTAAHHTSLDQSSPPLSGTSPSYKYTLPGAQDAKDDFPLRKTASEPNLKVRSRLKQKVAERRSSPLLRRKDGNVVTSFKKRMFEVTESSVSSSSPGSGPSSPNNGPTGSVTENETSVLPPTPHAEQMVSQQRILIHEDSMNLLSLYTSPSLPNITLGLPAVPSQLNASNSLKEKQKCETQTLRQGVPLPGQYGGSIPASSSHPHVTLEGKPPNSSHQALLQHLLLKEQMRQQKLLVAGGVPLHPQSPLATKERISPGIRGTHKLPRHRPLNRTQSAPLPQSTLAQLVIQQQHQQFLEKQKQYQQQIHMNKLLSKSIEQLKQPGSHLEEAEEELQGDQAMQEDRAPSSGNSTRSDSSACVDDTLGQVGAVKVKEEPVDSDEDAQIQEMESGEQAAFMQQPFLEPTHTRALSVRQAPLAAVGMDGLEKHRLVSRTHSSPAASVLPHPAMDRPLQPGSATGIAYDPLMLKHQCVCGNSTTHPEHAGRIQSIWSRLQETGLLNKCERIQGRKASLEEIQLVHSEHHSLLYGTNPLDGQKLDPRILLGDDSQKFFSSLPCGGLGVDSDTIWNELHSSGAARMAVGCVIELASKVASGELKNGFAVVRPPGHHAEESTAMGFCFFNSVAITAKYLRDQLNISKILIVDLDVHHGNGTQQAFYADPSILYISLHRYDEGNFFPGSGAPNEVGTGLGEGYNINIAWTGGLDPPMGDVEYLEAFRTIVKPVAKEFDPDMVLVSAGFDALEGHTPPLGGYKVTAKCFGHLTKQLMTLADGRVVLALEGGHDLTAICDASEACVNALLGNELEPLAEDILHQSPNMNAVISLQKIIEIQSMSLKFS
Friendly reminder that pIC50 comes from taking -log10 of the concentration in mol/L.

Some solved entries appear below for comparison.
{"compound": "O=C(CCCCCC1OCCCCCOc2ccccc2NC1=O)NO (racemic)", "target-or-test-system": "UniProt:Q9UKV0", "observed": 5.72}
{"compound": "COc1ccc(COC(CCCCCC(=O)NO)C(=O)Nc2ccccc2)cc1 (racemic)", "target-or-test-system": "UniProt:Q9UKV0", "observed": 6.61}
{"compound": "COc1cc2cc(c1)COc1ccccc1NC(=O)[C@@H](CCCCCC(=O)NO)OC/C=C\\2", "target-or-test-system": "UniProt:Q9UKV0", "observed": 6.52}
{"compound": "COc1cc2cc(c1)COc1ccccc1NC(=O)[C@@H](CCCCCC(=O)NO)OCCC2", "target-or-test-system": "UniProt:Q9UKV0", "observed": 6.49}
{"compound": "COc1cc2cc(c1)COc1ccccc1NC(=O)C(CCCCCC(=O)NO)OCCC2 (racemic)", "target-or-test-system": "UniProt:Q9UKV0", "observed": 6.47}

Identify measured pIC50 obtained with UniProt:Q9UKV0 for COc1cc2cc(c1)COc1ccccc1NC(=O)[C@H](CCCCCC(=O)NO)OC/C=C\2 . 7.22

Tell me its pIC50 on UniProt:Q9UKV0: COc1cc2cc(c1)COc1ccccc1NC(=O)[C@H](CCCCCC(=O)NO)OCCC2 6.91

Recall the reported pIC50 of O=C(CCCCCC1OCCCCCCOc2ccccc2NC1=O)NO (racemic) when tested on UniProt:Q9UKV0. 6.16

Please report the measured pIC50 for O=C(CCCCCC1OCCCCCCCOc2ccccc2NC1=O)NO (racemic) tested on UniProt:Q9UKV0. 5.98

Specify the recorded pIC50 for COc1cc2cc(c1)COc1ccccc1NC(=O)C(CCCCCC(=O)NO)OC/C=C\2 (racemic) , system: UniProt:Q9UKV0. 7.00

====

system: NCI-H460; assay: cells; type: functional, cell-based; details: Homo sapiens, NCI-H460, 48 h
IC50 less than 700 nM is true (1); IC50 greater than or equal to 700 nM is false (0).

Check out these entries, answers already filled in.
{"compound": "COc1cc2cc(c1)COc1ccccc1NC(=O)C(CCCCCC(=O)NO)OCCC2 (racemic)", "target-or-test-system": "NCI-H460", "label": "false (0)"}
{"compound": "COc1cc2cc(c1)COc1ccccc1NC(=O)[C@H](CCCCCC(=O)NO)OCCC2", "target-or-test-system": "NCI-H460", "label": "false (0)"}
{"compound": "COc1cc2cc(c1)COc1ccccc1NC(=O)[C@H](CCCCCC(=O)NO)OC/C=C\\2", "target-or-test-system": "NCI-H460", "label": "false (0)"}
{"compound": "O=C(CCCCCC1OCCCCCCOc2ccccc2NC1=O)NO (racemic)", "target-or-test-system": "NCI-H460", "label": "false (0)"}

Record O=C(/C=C/c1ccc(CN(CCO)CCc2c[nH]c3ccccc23)cc1)NO [DACINOSTAT] : is its IC50 strictly below 700 nM? true (1)

Is IC50 of COc1cc2cc(c1)COc1ccccc1NC(=O)[C@@H](CCCCCC(=O)NO)OC/C=C\2 strictly below 700 nM? false (0)

Determine if CC(/C=C/C(=O)NO)=C\[C@@H](C)C(=O)c1ccc(N(C)C)cc1 [TRICHOSTATIN] shows IC50 strictly lower than 700 nM. true (1)

For this compound, is IC50 lower than 700 nM? COc1cc2cc(c1)COc1ccccc1NC(=O)C(CCCCCC(=O)NO)OC/C=C\2 (racemic) false (0)

I'd appreciate it if you could check whether O=C(CCCCCC1OCCCCCCCOc2ccccc2NC1=O)NO (racemic) has IC50 smaller than 700 nM. true (1)

Is 700 nM strictly greater than the compound's reported IC50? compound: O=C(CCCCCC1OCCCCCOc2ccccc2NC1=O)NO (racemic) false (0)
